# target system: PI3Kα (Homo sapiens, UniProt P42336)
# Construct: purchased Invitrogen PV4788
# Sequence (P42336 whole entry, species assumed): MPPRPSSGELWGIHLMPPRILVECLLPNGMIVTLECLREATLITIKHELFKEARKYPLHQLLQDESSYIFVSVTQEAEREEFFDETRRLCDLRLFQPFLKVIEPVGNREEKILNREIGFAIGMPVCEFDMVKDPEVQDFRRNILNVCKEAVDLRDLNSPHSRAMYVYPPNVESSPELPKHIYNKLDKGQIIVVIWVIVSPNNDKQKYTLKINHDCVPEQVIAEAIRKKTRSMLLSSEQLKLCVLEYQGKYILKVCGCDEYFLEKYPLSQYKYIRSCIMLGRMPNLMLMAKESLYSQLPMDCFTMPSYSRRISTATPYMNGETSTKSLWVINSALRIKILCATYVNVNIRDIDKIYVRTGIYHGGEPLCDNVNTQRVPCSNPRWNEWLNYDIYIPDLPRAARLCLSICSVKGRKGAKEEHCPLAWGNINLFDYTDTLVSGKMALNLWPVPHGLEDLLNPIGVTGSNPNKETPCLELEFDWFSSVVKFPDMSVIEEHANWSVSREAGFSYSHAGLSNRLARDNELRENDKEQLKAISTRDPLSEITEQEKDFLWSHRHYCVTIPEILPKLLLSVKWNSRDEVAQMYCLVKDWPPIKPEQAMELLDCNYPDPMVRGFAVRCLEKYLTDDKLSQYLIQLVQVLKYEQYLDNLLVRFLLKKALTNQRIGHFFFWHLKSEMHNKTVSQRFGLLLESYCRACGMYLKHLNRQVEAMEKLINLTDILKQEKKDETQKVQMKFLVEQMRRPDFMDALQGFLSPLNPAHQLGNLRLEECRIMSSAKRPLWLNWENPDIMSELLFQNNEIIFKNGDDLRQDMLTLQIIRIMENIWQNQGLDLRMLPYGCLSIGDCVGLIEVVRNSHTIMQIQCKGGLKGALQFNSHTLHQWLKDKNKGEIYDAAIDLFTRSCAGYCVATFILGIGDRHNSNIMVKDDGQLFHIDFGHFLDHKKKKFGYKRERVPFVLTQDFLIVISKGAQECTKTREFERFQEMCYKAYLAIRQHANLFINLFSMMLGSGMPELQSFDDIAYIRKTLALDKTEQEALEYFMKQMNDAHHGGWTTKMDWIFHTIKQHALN
# Sequence (P27986 whole entry partner, species assumed): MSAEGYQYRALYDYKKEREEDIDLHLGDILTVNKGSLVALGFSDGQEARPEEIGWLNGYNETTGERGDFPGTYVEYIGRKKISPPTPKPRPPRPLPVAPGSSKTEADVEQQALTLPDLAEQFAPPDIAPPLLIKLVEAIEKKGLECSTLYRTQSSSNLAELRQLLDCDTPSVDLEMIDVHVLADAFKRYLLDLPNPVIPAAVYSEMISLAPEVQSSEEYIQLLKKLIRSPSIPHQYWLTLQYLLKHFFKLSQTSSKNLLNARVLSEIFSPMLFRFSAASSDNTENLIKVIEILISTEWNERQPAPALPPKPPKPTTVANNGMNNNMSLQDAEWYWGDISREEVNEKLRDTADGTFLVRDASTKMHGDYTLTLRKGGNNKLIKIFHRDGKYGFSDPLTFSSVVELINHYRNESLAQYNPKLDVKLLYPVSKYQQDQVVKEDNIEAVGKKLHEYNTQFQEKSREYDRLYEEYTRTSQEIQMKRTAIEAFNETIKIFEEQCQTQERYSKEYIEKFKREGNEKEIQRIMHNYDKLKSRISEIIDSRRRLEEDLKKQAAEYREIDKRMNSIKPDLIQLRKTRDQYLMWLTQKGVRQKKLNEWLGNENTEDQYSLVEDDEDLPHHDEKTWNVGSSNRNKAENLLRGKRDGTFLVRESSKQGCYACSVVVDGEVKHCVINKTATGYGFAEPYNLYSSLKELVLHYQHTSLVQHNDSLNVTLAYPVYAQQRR
# assay procedure: PI3Kα activity inhibition (Kinase-Glo)
# Assay type: biochemical
# protocol conditions: Table 1, graded; read-out: PI3Kα IC50
pIC50: −log10 of the molar value.
For each entry below, report its pIC50 value.

For orientation, consider the following solved cases.
> print(dat)
                               given.smiles  measured.value
1  COc1ccc(-c2nc(N3CCNCC3)c3nc(CN(C)c4ncc(C(=O)NO)cn4)n(C)c3n2)cc1          < 5.00
2  CC(C)COc1ccc(-c2nc(N3CCOCC3)c3nc(CN(C)c4ncc(C(=O)NO)cn4)n(C)c3n2)cc1          < 5.00
3  CN(Cc1nc2c(N3CCOCC3)nc(-c3ccsc3)nc2n1C)c1ncc(C(=O)NO)cn1          < 5.00

As a next step, examine the molecule that follows.
Field: pIC50 (PI3Kα (Homo sapiens, UniProt P42336)). Entry: Cc1ncc(-c2nc(N3CCOCC3)c3nc(CN(C)c4ncc(C(=O)NO)cn4)n(C)c3n2)cn1
> 7.00
